pIC50 tested on Histone deacetylase 1 (Homo sapiens, UniProt Q13547): recorded values
Sequence (Q13547 whole entry): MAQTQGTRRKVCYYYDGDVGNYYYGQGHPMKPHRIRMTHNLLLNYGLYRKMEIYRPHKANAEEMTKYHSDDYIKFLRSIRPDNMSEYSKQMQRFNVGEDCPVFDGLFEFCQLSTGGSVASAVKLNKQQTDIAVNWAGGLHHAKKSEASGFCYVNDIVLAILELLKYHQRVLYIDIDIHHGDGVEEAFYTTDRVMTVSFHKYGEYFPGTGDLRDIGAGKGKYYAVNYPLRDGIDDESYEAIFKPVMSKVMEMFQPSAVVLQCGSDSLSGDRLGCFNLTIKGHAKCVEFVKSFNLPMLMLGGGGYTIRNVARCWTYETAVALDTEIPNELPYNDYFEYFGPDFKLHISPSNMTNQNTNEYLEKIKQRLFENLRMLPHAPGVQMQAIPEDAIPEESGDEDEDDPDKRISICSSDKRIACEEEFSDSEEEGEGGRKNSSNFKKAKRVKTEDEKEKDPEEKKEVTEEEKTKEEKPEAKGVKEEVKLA
pIC50: −log10 of the molar value.
measured property: pIC50

1) CC(C)(C)OC(=O)NCC[C@@H]1NC(=O)[C@]2(C)CSC(=N2)c2csc(n2)CNC(=O)C[C@@H](/C=C/CCS)OC1=O    8.64
2) C[C@@]12CSC(=N1)c1csc(n1)CNC(=O)C[C@@H](/C=C/CCS)OC(=O)[C@H](Cc1ccccc1)NC2=O    9.54
3) C[C@@]12CSC(=N1)c1csc(n1)CNC(=O)C[C@@H](/C=C/CCS)OC(=O)[C@H](Cc1c[nH]cn1)NC2=O    9.70
4) C[C@@]12CSC(=N1)c1csc(n1)CNC(=O)C[C@@H](/C=C/CCS)OC(=O)[C@H](CCCN)NC2=O    8.48
5) C[C@@]12CSC(=N1)c1csc(n1)CNC(=O)C[C@@H](/C=C/CCS)OC(=O)[C@H](CC(=O)O)NC2=O    7.41
6) C[C@@]12CSC(=N1)c1csc(n1)CNC(=O)C[C@@H](/C=C/CCS)OC(=O)[C@H](Cc1ccc(O)cc1)NC2=O    9.68
7) C[C@@]12CSC(=N1)c1csc(n1)CNC(=O)C[C@@H](/C=C/CCS)OC(=O)[C@H](CCN)NC2=O    8.26
